The following compounds are listed with their measured composite z-score values.
tested system: Calmodulin-1 (Homo sapiens)
measurement notes: small molecules binding calmodulin-1 with EGTA – biochemical, small-molecule microarray, Cy5-labelled CALM1, profiling panel (AID 1111);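 also: labelled calmodulin applied in Tris saline Tween buffer holding calcium plus EGTA and DTT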
condition summary: Cy5-CALM1 binding fluorescence, higher = more signal
// print number alone

INSERT INTO measurements (compound, reported_endpoint, endpoint_value) VALUES
  ('Cc1ccc(S[C@]2(C(=O)NCc3ccccc3)CC(=O)N(C3CCCCC3)[C@@H]2c2ccc(CO)cc2I)cc1', 'composite z-score', 0.699),
  ('COc1ccc([Si](C)(C)[C@@H]2[C@@H](CC(=O)N(CCO)Cc3ccccc3)O[C@]3(C(=O)N(Cc4cccc(N5CCCCC5=O)c4)c4ccccc43)[C@H]2C)cc1', 'composite z-score', 0.822),
  ('COC(=O)C1=CC(CCCO)=CC(c2cccs2)N(Cc2cccc(OC(F)(F)F)c2)C=C1C(=O)OC (stereo not drawn)', 'composite z-score', 2.05),
  ('C=CCNC(=O)[C@@H]1[C@H]2C(=O)O[C@H](c3ccccc3)[C@H](c3ccccc3)N2[C@H](c2ccc(O)cc2)[C@@]12C(=O)N(C(=O)OCCOC)c1ccc(C#CC3=CCCCC3)cc12', 'composite z-score', 0.544),
  ('[N-]=[N+]=NCc1ccccc1C[C@@]1(C(N)=O)N=C(c2ccc(OCCCO)cc2)O[C@@H]1c1ccccc1', 'composite z-score', 1.85);

Continue with the next compound.
Exam item: Consider the compound "CCOC(=O)C1=C[C@@H](C(C)(C)C)N(S(=O)(=O)c2ccc(C)cc2)[C@H]1c1cccc2ccccc12" tested on Calmodulin-1 (Homo sapiens); state its composite z-score.
Marked response: 1.07

* * *

tested system: E3 ubiquitin-protein ligase XIAP (Homo sapiens)
measurement notes: small molecules binding XIAP protein – biophysical, small-molecule microarray, fluorescence 635 nm, primary screen (AID 1181);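 also: score merges 667 nm emission and signal to noise over triplicate slides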
condition summary: higher = more signal
reported endpoint: composite z-score
// print number alone

The following molecules have reported results that may help.
INSERT INTO measurements (molecule, reported_endpoint, endpoint_value) VALUES
  ('COC(=O)C1=CC(CCCO)=CC(c2ccc(CN3CCCC3)cc2)N(Cc2cccc(OC(F)(F)F)c2)C=C1C(=O)OC (stereo not drawn)', 'composite z-score', 0.166),
  ('CCCC=C(CCC)[C@@H](NS(=O)(=O)CC12CCC(CC1=O)C2(C)C)c1ccc(C(=O)OC)cc1 (stereo partly drawn)', 'composite z-score', -0.102),
  ('CCOC(=O)C[C@H]1[C@H](OC(=O)c2ccccc2-c2ccccc2)[C@@H](NC(=O)c2ccc3ccccc3n2)c2cc(OCCCO)ccc2N1C(=O)Cc1ccc(OC)cc1', 'composite z-score', -0.408),
  ('CCCCCCCCCCC(O)C1C=CC2C(=O)N(c3ccccc3)C(=O)C2N1Nc1ccc(C#N)cc1 (stereo not drawn)', 'composite z-score', 1.38),
  ('C=C(COC)/C(=C/C[C@H](OC(=O)c1ccncc1)c1ccc(CO)o1)c1cnc2ccccc2c1', 'composite z-score', -0.121),
  ('COCCOC(=O)N1C(=O)[C@@]2(c3cc(C#CC4=CCCCC4)ccc31)[C@H](C(=O)Nc1nc3ccccc3s1)[C@H]1C(=O)O[C@H](c3ccccc3)[C@H](c3ccccc3)N1[C@@H]2c1ccc(O)cc1', 'composite z-score', -0.138),
  ('[N-]=[N+]=Nc1ccccc1C[C@]1(C(=O)N2CCOCC2)COC(c2ccc(OCCCO)cc2)=N1', 'composite z-score', 0.138);

Continue with the next molecule.
Exam item: Consider the molecule "COCCOC(=O)N1C(=O)[C@@]2(c3cc(C#CCC(C(=O)OC)C(=O)OC)ccc31)[C@H](c1ccc(OCCO)cc1)N1[C@H](c3ccccc3)[C@H](c3ccccc3)OC(=O)[C@H]1[C@@H]2C(=O)N1CCc2cc(OC)c(OC)cc2C1" tested on E3 ubiquitin-protein ligase XIAP (Homo sapiens); state its composite z-score.
Marked response: 0.112

* * *

measurement notes: S6 kinase pathway phospho-S6 level changes – cell-based, A549, cytoblot, luminescence, serum-stimulated, primary screen (AID 1158);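 also: serum-stimulated A549 lung adenocarcinoma cells; signal is phosphorylated S6 detected by cytoblot immunostaining with HRP secondary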
condition summary: 5 h, higher = more signal
Class boundaries, taken from values of z-score, are as follows: low class: < -0.3; middle class: ≥ -0.3 and < 0.4; high class: ≥ 0.4

The following molecules have reported results that may help.
INSERT INTO assay_data (molecule, class) VALUES
  ('CS(=O)(=O)CCOC(=O)C1=CC(CCCO)=CC(c2ccc(CN3CCCC3)cc2)N(Cc2sc3ccccc3c2Cl)C=C1C(=O)OCCS(C)(=O)=O (stereo unspecified)', 'middle class'),
  ('CC(C)[Si]1(C(C)C)OCc2cc(C3CC3)nc(-c3ccc(Oc4ccccc4)cc3)c21', 'low class'),
  ('CO[C@H]1O[C@H](CO)[C@@H](OC(=O)Nc2ccc3c(c2)OCO3)[C@H](OC(=O)Nc2ccc3c(c2)OCO3)[C@@H]1OC(=O)Nc1ccc2c(c1)OCO2', 'low class');

Exam item: Hi, small favor: classify "C=CC[C@@H](OC(=O)Nc1ccc(SC)cc1)c1ccc(O)c(F)c1" by its z-score when you get a moment.
Marked response: high class

Exam item: Hi, small favor: classify "COCCOC(=O)N1C(=O)[C@@]2(c3cc(C#CCC(C(=O)OC)C(=O)OC)ccc31)[C@H](c1ccc(OCCO)cc1)N1[C@H](c3ccccc3)[C@H](c3ccccc3)OC(=O)[C@H]1[C@@H]2C(=O)N1CCc2cc(OC)c(OC)cc2C1" by its z-score when you get a moment.
Marked response: middle class

Exam item: Hi, small favor: classify "COCCOC(=O)N1C(=O)[C@@]2(c3cc(C#CCCO)ccc31)[C@H](c1ccc(OCCO)cc1)N1[C@H](c3ccccc3)[C@H](c3ccccc3)OC(=O)[C@H]1[C@@H]2C(=O)Nc1nc2ccccc2s1" by its z-score when you get a moment.
Marked response: middle class

Exam item: Hi, small favor: classify "CC(=O)NCCCC[C@@H]1NC(=O)[C@@H]2C[C@H](C(=O)NCCCCCN)[C@H](c3cccc(OCCO)c3)N2C1=O" by its z-score when you get a moment.
Marked response: high class

Exam item: Hi, small favor: classify "CCOC(=O)C[C@H]1[C@H](OC(=O)c2ccc(C(=O)c3ccccc3)cc2)[C@@H](NC(=O)C2CCCCC2)c2cc(OCCCO)ccc2N1C(=O)c1ccc2ccccc2n1" by its z-score when you get a moment.
Marked response: middle class

Exam item: Hi, small favor: classify CC(CO)N1C(=O)[C@@H]2[C@H]3C(=O)OCC=C[C@H]3OC23C=CCN(Cn2nnc4ccccc42)C(=O)[C@@H]13 (stereo partly specified) by its z-score when you get a moment.
Marked response: middle class

Exam item: Hi, small favor: classify "CCOC(=O)C=Cc1cccc(C)c1O" by its z-score when you get a moment.
Marked response: high class

Exam item: Hi, small favor: classify "COc1ccc([Si](C)(C)[C@@H]2[C@@H](CC(=O)N(CCO)Cc3ccccc3)O[C@]3(C(=O)N(Cc4cccc(N5CCCCC5=O)c4)c4ccccc43)[C@H]2C)cc1" by its z-score when you get a moment.
Marked response: high class

Exam item: Hi, small favor: classify "C=CC[C@@H](OC(=O)Nc1ccc(OC)cc1)c1ccc(O)c(F)c1" by its z-score when you get a moment.
Marked response: low class

Exam item: Hi, small favor: classify "CCCNC(=O)[C@@]1(C)c2ccccc2C(=O)N(c2ccc(C)cn2)[C@H]1c1ccc(CO)cc1" by its z-score when you get a moment.
Marked response: high class

* * *

measurement notes: compound effects on multiple myeloma cell viability – MM1S, calcein-AM fluorescence, 48 h, basal, profiling panel (AID 1165);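 also: viability of MM1S multiple myeloma cells under basal unstimulated conditions; test concentration not given here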
condition summary: higher = more signal
Label True when z-score is at or above -0.8; otherwise label False.

Exam item: Could you tell me if the measured z-score of O=C1OCCC/C=C\[C@H]2OC34C=CCN(c5ccc6ccccc6c5)C(=O)[C@H]3N(CCO)C(=O)[C@@H]4C12 (some centres undefined) reaches -0.8 or more?
Marked response: True

Exam item: Could you tell me if the measured z-score of "CCOC(=O)C[C@H]1[C@H](OC(=O)c2ccc(C(=O)c3ccccc3)cc2)[C@@H](NC(=O)c2ccc3ccccc3n2)c2cc(OCCCO)ccc2N1C(=O)Cc1ccc(OC)cc1" reaches -0.8 or more?
Marked response: True

Exam item: Could you tell me if the measured z-score of CCCCC(CC)C(O)C1C=CC2C(=O)N(c3ccccc3)C(=O)C2N1Nc1ccc(C#N)cc1 (centres undefined) reaches -0.8 or more?
Marked response: True

Exam item: Could you tell me if the measured z-score of "COc1ccc(C#Cc2ccc3c(c2)[C@]2(C(=O)N3)[C@H](c3ccc(OCCO)cc3)N3[C@H](c4ccccc4)[C@H](c4ccccc4)OC(=O)[C@H]3[C@@H]2C(=O)NC[C@H](O)c2ccccc2)cc1" reaches -0.8 or more?
Marked response: True

Exam item: Could you tell me if the measured z-score of "CCCC=C(CCC)[C@@H](NC(=O)C(C)(C)C)c1ccc(C(=O)OC)cc1" reaches -0.8 or more?
Marked response: True

Exam item: Could you tell me if the measured z-score of "C=CCNC(=O)[C@@H]1[C@H]2C(=O)O[C@H](c3ccccc3)[C@H](c3ccccc3)N2[C@H](c2ccccc2OCCO)[C@@]12C(=O)N(C(=O)OCCOC)c1ccc(C#CC3(O)CCCCCC3)cc12" reaches -0.8 or more?
Marked response: False

Exam item: Could you tell me if the measured z-score of "NCCCCCNC(=O)[C@H]1C[C@H]2C(=O)N3CCC[C@H]3C(=O)N2[C@H]1c1cccc(OCCO)c1" reaches -0.8 or more?
Marked response: False

Exam item: Could you tell me if the measured z-score of "COc1cc2c(cc1O)C=[N+](Cc1sc3ccccc3c1Cl)CC2" reaches -0.8 or more?
Marked response: True

FYI, the data here is from PubChem BioAssay.
